In this section we review reported melting point values for a set of compounds.

Completed entries (count: 10):
compound: O=C(O)c1cn(C2CC2)c2c(F)c(F)c(F)c(NC(=O)C(F)(F)F)c2c1=O
measured_result: 188 °C
--
compound: C(=C\c1nc(COc2ccc(CCCCCCn3ccnc3)cc2)co1)/c1ccccc1
measured_result: 108 to 109 °C
--
compound: O=Cc1ccc(OCc2cn3c(Cl)cccc3n2)cc1
measured_result: 126 to 130 °C
--
compound: COC(=O)c1ccc(OC)c2oc(/C=C\C(=O)O)cc12
measured_result: 175 to 178 °C
--
compound: CSCCC(=O)NCc1cccc(-c2nc(=O)c3ccccc3s2)n1
measured_result: 192 to 193 °C
--
compound: CC(C)(C)c1cc(SCCC(=O)NC23CC4CC(CC(C4)C2)C3)cc(C(C)(C)C)c1O
measured_result: 172 to 174 °C
--
compound: COc1cc(OC)c2c(=O)oc(=O)[nH]c2c1
measured_result: 287 to 293 °C
--
compound: COC(=O)c1cnc(CO)n1C(c1ccccc1)c1ccccc1
measured_result: 160 °C
--
compound: COc1cc(SC)ccc1O
measured_result: 47 to 49 °C
--
compound: CCNC(=S)n1nc(Oc2ncc(C(F)(F)F)cc2Cl)cc1C
measured_result: 74 to 75 °C

Enquiry: For the compound shown here, Cc1cnc2[nH]cc(/C=C3\N=C(N(C)CC(C)C)NC3=O)c2c1 , give the reported melting point.
Return: 287 to 289 °C

Enquiry: For the compound shown here, Cc1c(C)c2ccc(OCCCc3ccccc3)cc2oc1=O , give the reported melting point.
Return: 104 °C

Enquiry: For the compound shown here, Oc1ccccc1-c1nc(-c2ccccc2O)n(CC(F)(F)F)n1 , give the reported melting point.
Return: 154 to 156 °C

Enquiry: For the compound shown here, Cc1csc2nc(C(=O)NCc3cccc(CNC(=O)c4nc[nH]n4)c3)[nH]c(=O)c12 , give the reported melting point.
Return: 290 to 291 °C

Enquiry: For the compound shown here, Cc1cc(Br)cnc1CCCn1nnc2cc(Cc3cccnc3)cnc21 , give the reported melting point.
Return: 109 to 110 °C

Enquiry: For the compound shown here, CCC1=NNC(C)=C(C(=O)OC2CCCC2)C1c1cccc([N+](=O)[O-])c1 (stereo unspecified) , give the reported melting point.
Return: 110 °C

----------
endpoint_label: melting point

compound: CN(C(=O)c1ccc(C(=O)C(C)(C)C)cc1)C(=O)c1ccc(C(=O)C(C)(C)C)cc1
measured_result: 122 °C

Now for another entry.
Enquiry: For the compound shown here, CC(C)C[C@H](N[C@H](CCN1C(=O)c2cc3ccccc3cc2C1=O)C(=O)OC(C)(C)C)C(=O)O , give the reported melting point.
Return: 168 to 169 °C

----------
endpoint_label: melting point

Completed entries (count: 3):
molecule: CC(C)(C)c1ccc(Sc2ccc([N+](=O)[O-])cc2)cc1
measured_result: 65 to 66 °C
//
molecule: COc1nc(NC(=O)Nc2ccccc2OC)nc(N(CCC(=O)O)Cc2cccc(C)c2)n1
measured_result: 160 to 162 °C
//
molecule: CS(=O)(=O)c1ccc(-c2[nH]nc(C(=O)CCCO[N+](=O)[O-])c2-c2ccc(C#N)cc2)cc1
measured_result: 148 to 149 °C

Enquiry: For the molecule shown here, ON=C1CCC(O)(c2ccccc2Cc2ccccc2)CC1 (centres undefined) , give the reported melting point.
Return: 137 to 138 °C

Enquiry: For the molecule shown here, CCCCCCCCCCC1(CCCCCCCCCC)c2cc(Br)ccc2-c2ccc(Br)cc21 , give the reported melting point.
Return: 38.1 to 38.4 °C

Enquiry: For the molecule shown here, COc1ccc(C2(C#Cc3cccc(-c4noc(C)n4)c3)CCCC(=O)C2)cc1OC1CCCC1 (centres undefined) , give the reported melting point.
Return: 116 to 118 °C

Enquiry: For the molecule shown here, O=C(O)C(CCCCc1ccccc1)Oc1cccc2ccccc12 (centres undefined) , give the reported melting point.
Return: 91 to 94 °C

Enquiry: For the molecule shown here, CN(C(=O)C(Cl)(Cl)Cl)c1nc(Cl)c([N+](=O)[O-])s1 , give the reported melting point.
Return: 146 to 149 °C

Enquiry: For the molecule shown here, Nc1ccc(C(=O)Nc2ccccc2C(c2ccc(O)cc2)c2ccc(O)cc2)cc1 , give the reported melting point.
Return: 158 to 161 °C

Enquiry: For the molecule shown here, CCOC(=O)C(CNC(=O)c1ccccc1)C(=O)C(F)(F)F (centres undefined) , give the reported melting point.
Return: 85 to 88 °C

Enquiry: For the molecule shown here, N#Cc1cc(C(=O)CCl)cs1 , give the reported melting point.
Return: 94 to 98 °C

Enquiry: For the molecule shown here, O=C(NCc1ccc2c(c1)OCO2)c1ccc2n1Cc1ccccc1N(C(=O)CSc1ccc(Br)cc1)C2 , give the reported melting point.
Return: 154 to 155 °C

Enquiry: For the molecule shown here, O=C1c2cc([N+](=O)[O-])ccc2OCN1CCO[N+](=O)[O-] , give the reported melting point.
Return: 97 to 99 °C

Enquiry: For the molecule shown here, COC(=O)COc1ccc(OCC(=O)OC)cc1 , give the reported melting point.
Return: 96 to 98 °C

Enquiry: For the molecule shown here, O=C(O)C1CSC(c2ccncc2)N1 (centres undefined) , give the reported melting point.
Return: 171 to 173 °C

Enquiry: For the molecule shown here, CC(C)(C)OC(=O)[C@H]1CC[C@@H](NC(=O)OCc2ccccc2)CC1 , give the reported melting point.
Return: 73 to 74 °C

Enquiry: For the molecule shown here, C=Cc1cc(O)cc2nc(-c3ccc(O)cc3F)oc12 , give the reported melting point.
Return: 274 to 275 °C

Enquiry: For the molecule shown here, O=c1c2c(Cc3ccccc3)n[nH]c2c2cccnc2n1-c1cccc([N+](=O)[O-])c1 , give the reported melting point.
Return: 276 to 279 °C

Enquiry: For the molecule shown here, CCOC1=CC(=O)N([C@@H]2c3cc(C#N)ccc3OC(C)(C)[C@H]2O)C1 , give the reported melting point.
Return: 210 °C

Enquiry: For the molecule shown here, Cc1ccc(-c2cccn2-c2ccc(S(N)(=O)=O)cc2)cc1 , give the reported melting point.
Return: 183 to 184 °C

Enquiry: For the molecule shown here, CS(=O)(=O)c1ccc(-c2ccc3cnc(Nc4ccc(N5CCCCC5)cc4)nn23)cc1 , give the reported melting point.
Return: 204 to 209 °C

----------
In this section we review reported melting point values for a set of molecules.

Completed entries (count: 3):
molecule: OC1(c2ccc(F)cc2)N=C2SCCN2C1c1ccc(F)cc1 (configuration not stated)
melting point: 159 to 160 °C
//
molecule: CCC12CCC3C4CCC(=O)C=C4CCC3C1CCC2(O)C(C)O (configuration not stated)
melting point: 159 to 164 °C
//
molecule: COC(=O)c1ccc2c(Br)cccc2c1
melting point: 65 to 68 °C

Enquiry: For the molecule shown here, N#CN=c1ncccn1Cc1ccc(Cl)nc1 , give the reported melting point.
Return: 218 to 220 °C

Enquiry: For the molecule shown here, O=C1c2ccccc2C(=O)N1Cc1cc(I)ccc1Cl , give the reported melting point.
Return: 134 to 136 °C

Enquiry: For the molecule shown here, C[Si](C)(C)NC(=O)C(Cl)(Cl)Cl , give the reported melting point.
Return: 75 to 85 °C

----------
endpoint_label: melting point

compound: CC(C)(C)OC(=O)N1CCC(c2nc3cc(-c4ccc(C(N)=O)c(F)c4)ccc3o2)CC1
melting point: 202 to 206 °C

Enquiry: For the compound shown here, CCCc1nc2c(N)nc3ccccc3c2n1Cc1cc(-c2cccnc2)on1 , give the reported melting point.
Return: 206 to 207 °C

Enquiry: For the compound shown here, N#Cc1c[nH]cc1-c1cccc2c1OCO2 , give the reported melting point.
Return: 206 to 208 °C

----------
endpoint_label: melting point

compound: COc1ccc(-c2c(Cl)ncn2-c2ccc(S(C)(=O)=O)cc2)cc1
melting point: 205 °C
//
compound: Clc1ccc(CNc2nc(Cl)cc(Cl)n2)cc1
melting point: 154 to 157 °C
//
compound: COC(=O)COc1cccnc1
melting point: 174 °C
//
compound: Clc1ccc2c(c1)C(c1ccccc1)=NCc1n[nH]nc1-2
melting point: 199 to 200 °C
//
compound: CCCSc1sc(C(=O)OCC)c2c1-c1[nH]ncc1CC2
melting point: 161 to 162 °C
//
compound: CC(=O)Nc1c(Cl)cnn(-c2ccccc2)c1=O
melting point: 177 to 178 °C
//
compound: Cc1cccc(-c2[nH]c(C(C)C)nc2-c2cccc(-c3ccc(C(F)(F)F)cc3)c2)n1
melting point: 91 to 93 °C
//
compound: O=C1COCCOCC(=O)NCCSCCSCCN1
melting point: 145 °C
//
compound: CCC(C#N)c1nsc2ccc(-n3c(=O)cc(C(F)(F)F)n(C)c3=O)cc12 (stereo unspecified)
melting point: 107 to 109 °C
//
compound: CN1CCC(=O)C(C2c3ccccc3C=Cc3ccccc32)C1 (stereo unspecified)
melting point: 144 to 158 °C

Enquiry: For the compound shown here, O=C1NCc2ccc(OCCCCN3CCN(c4cccc(Cl)c4Cl)CC3)nc2N1 , give the reported melting point.
Return: 166 to 167 °C
